# Tested on: Aspergillus flavus
# METHOD_NOTES: Antifungal activity against Aspergillus flavus
# Format: functional
The threshold is 60 µg/mL. Values of MIC beneath it are tagged rule met; values meeting or exceeding it are tagged rule not met.

Answered cases to consult:
{"MOLECULE": "CCOC(=O)C1=C(C)NC(=S)NC1c1ccc(NC(=O)Nc2cc(C(F)(F)F)ccc2Cl)cc1 (centres undefined)", "CLASS_LABEL": "rule not met"}
{"MOLECULE": "CCOC(=O)C1=C(C)NC(=S)NC1c1ccc(NC(=O)Nc2ccc(C(F)(F)F)cc2)cc1 (centres undefined)", "CLASS_LABEL": "rule met"}
{"MOLECULE": "CCOC(=O)C1=C(C)NC(=S)NC1c1ccc(NC(=O)Nc2ccccc2F)cc1 (centres undefined)", "CLASS_LABEL": "rule met"}
{"MOLECULE": "CCOC(=O)C1=C(C)NC(=S)NC1c1ccc(NC(=O)Nc2ccc(C(C)C)cc2)cc1 (centres undefined)", "CLASS_LABEL": "rule not met"}
{"MOLECULE": "CCOC(=O)C1=C(C)NC(=S)NC1c1ccc(NC(=O)Nc2cccc(C(F)(F)F)c2)cc1 (centres undefined)", "CLASS_LABEL": "rule met"}

We now examine a further molecule.
Threshold test, MIC < 60 µg/mL: CCOC(=O)C1=C(C)NC(=S)NC1c1ccc(NC(=O)Nc2ccc(F)c(C)c2)cc1 (centres undefined)
rule not met

---

# Test system: Bacillus subtilis
# METHOD_NOTES: Antibacterial activity against Bacillus subtilis
# Type: functional
VALUE_KIND: MIC (µg/mL)
One number for each entry, in µg/mL.

The cases that follow already have their MIC on record.
{"MOLECULE": "CCOC(=O)C1=C(C)NC(=S)NC1c1ccc(NC(=O)Nc2c(F)cccc2Cl)cc1 (stereo not drawn)", "TARGET_OF_ASSAY": "Bacillus subtilis", "MIC (µg/mL)": 55}
{"MOLECULE": "CCOC(=O)C1=C(C)NC(=S)NC1c1ccc(NC(=O)Nc2ccccc2Cl)cc1 (stereo not drawn)", "TARGET_OF_ASSAY": "Bacillus subtilis", "MIC (µg/mL)": 20}

Given CCOC(=O)C1=C(C)NC(=S)NC1c1ccc(NC(=O)Nc2cccc(C(F)(F)F)c2)cc1 (stereo not drawn) , state its recorded MIC.
55

---

# Test system: Staphylococcus aureus
# METHOD_NOTES: Antibacterial activity against Staphylococcus aureus
# Format: functional
I'd be grateful if you could share measured MIC for these entries.

The cases that follow already have their MIC on record.
{"MOLECULE": "CCOC(=O)C1=C(C)NC(=S)NC1c1ccc(NC(=O)Nc2c(C)cccc2Cl)cc1 (stereo not drawn)", "MIC": "40 µg/mL"}
{"MOLECULE": "CCOC(=O)C1=C(C)NC(=S)NC1c1ccc(NC(=O)Nc2ccc(F)c(Cl)c2)cc1 (stereo not drawn)", "MIC": "60 µg/mL"}
{"MOLECULE": "CCOC(=O)C1=C(C)NC(=S)NC1c1ccc(NC(=O)Nc2ccc(C(F)(F)F)cc2)cc1 (stereo not drawn)", "MIC": "20 µg/mL"}
{"MOLECULE": "CCOC(=O)C1=C(C)NC(=S)NC1c1ccc(NC(=O)Nc2ccccc2Oc2ccccc2)cc1 (stereo not drawn)", "MIC": "40 µg/mL"}

For each of the molecules below, note its MIC.
1. CCOC(=O)C1=C(C)NC(=S)NC1c1ccc(NC(=O)Nc2ccc(C)c(C)c2)cc1 (stereo not drawn)
2. CCOC(=O)C1=C(C)NC(=S)NC1c1ccc(NC(=O)Nc2cc(C(F)(F)F)ccc2Cl)cc1 (stereo not drawn)
3. CCOC(=O)C1=C(C)NC(=S)NC1c1ccc(NC(=O)Nc2c(F)cccc2Cl)cc1 (stereo not drawn)
4. CCOC(=O)C1=C(C)NC(=S)NC1c1ccc(NC(=O)Nc2ccccc2Cl)cc1 (stereo not drawn)
5. CCOC(=O)C1=C(C)NC(=S)NC1c1ccc(N)cc1 (stereo not drawn)
6. CCOC(=O)C1=C(C)NC(=S)NC1c1ccc(NC(=O)Nc2ccccc2C(F)(F)F)cc1 (stereo not drawn)
7. CCOC(=O)C1=C(C)NC(=S)NC1c1ccc(NC(=O)Nc2ccc(F)c(C)c2)cc1 (stereo not drawn)
8. CCOC(=O)C1=C(C)NC(=S)NC1c1ccc(NC(=O)Nc2c(Cl)cccc2C(F)(F)F)cc1 (stereo not drawn)

["90 µg/mL", "55 µg/mL", "65 µg/mL", "10 µg/mL", "40 µg/mL", "25 µg/mL", "65 µg/mL", "40 µg/mL"]

Given CCOC(=O)C1=C(C)NC(=S)NC1c1ccc([N+](=O)[O-])cc1 (stereo not drawn) , state its recorded MIC.
35 µg/mL

---

I'd be grateful if you could share measured MIC for these entries.
# Tested on: Aspergillus flavus
# METHOD_NOTES: Antifungal activity against Aspergillus flavus
# Type: functional
Numbers only, in µg/mL.

{"COMPOUND": "CCOC(=O)C1=C(C)NC(=S)NC1c1ccc(N)cc1 (stereo not drawn)", "MIC / µg/mL": 60}
{"COMPOUND": "CCOC(=O)C1=C(C)NC(=S)NC1c1ccc([N+](=O)[O-])cc1 (stereo not drawn)", "MIC / µg/mL": 60}

Given CCOC(=O)C1=C(C)NC(=S)NC1c1ccc(NC(=O)Nc2c(F)cccc2C(F)(F)F)cc1 (stereo not drawn) , state its recorded MIC.
60
